Reported inhibition at 10 µg/mL values for the following molecules.
# System: Aspergillus flavus
# EXPERIMENT NOTES: Antifungal activity against Aspergillus flavus at 10 ug/ml by agar plate method
# Format: functional

As a guide, the following entries are already answered.
> print(dat)
                                   molecule   system.under.test      measured.attribute  readout.value
1  O=C1Nc2cc3c(-c4ccccc4)c(-c4ccccc4)n(-c4ccc(Cl)cc4)c(=O)c3cc2C(c2ccccc2)N1 (stereo not given)  Aspergillus flavus  inhibition at 10 µg/mL            60%
2  O=C1Nc2cc3c(-c4ccccc4)c(-c4ccccc4)n(-c4ccccc4)c(=O)c3cc2C(c2ccccc2)N1 (stereo not given)  Aspergillus flavus  inhibition at 10 µg/mL          53.3%
3  COc1ccc(-n2c(-c3ccccc3)c(-c3ccccc3)c3cc4c(cc3c2=O)C(c2ccccc2)NC(=O)N4)cc1 (stereo not given)  Aspergillus flavus  inhibition at 10 µg/mL          ≤ 25%
4  O=C1NCc2cc3c(=O)n(-c4ccc(Cl)cc4)c(-c4ccccc4)c(-c4ccccc4)c3cc2N1  Aspergillus flavus  inhibition at 10 µg/mL          ≤ 25%

// next entry
Looking up `O=C1NCc2cc3c(=O)n(-c4ccccc4)c(-c4ccccc4)c(-c4ccccc4)c3cc2N1` , I see its inhibition at 10 µg/mL listed as ≤ 25%
